Origin of measurements: patent US9932350B2

biological target: GST tagged IRAK4 (Homo sapiens (Human))
Sequence (Q9NWZ3 whole entry): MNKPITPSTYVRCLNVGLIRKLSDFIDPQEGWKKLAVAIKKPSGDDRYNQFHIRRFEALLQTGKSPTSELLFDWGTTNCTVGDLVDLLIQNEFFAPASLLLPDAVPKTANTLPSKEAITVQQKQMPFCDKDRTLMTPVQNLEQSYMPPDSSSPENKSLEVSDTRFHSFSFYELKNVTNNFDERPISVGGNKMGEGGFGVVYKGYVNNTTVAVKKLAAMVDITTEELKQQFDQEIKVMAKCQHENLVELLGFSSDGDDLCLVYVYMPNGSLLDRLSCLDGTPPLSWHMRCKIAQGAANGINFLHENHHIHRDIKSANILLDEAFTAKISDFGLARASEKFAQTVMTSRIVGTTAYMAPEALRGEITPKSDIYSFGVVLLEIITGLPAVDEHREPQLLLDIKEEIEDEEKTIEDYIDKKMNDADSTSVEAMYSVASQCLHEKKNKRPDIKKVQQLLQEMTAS
Property: IC50 (µM)

Here are 3 compounds together with their reported answers.
Return reported IC50; argument: CN(C)[C@H]1CC[C@H](Nc2ncnc3ccc(C#N)cc23)CC1
0.007

Return reported IC50; argument: N#Cc1ccc2ncnc(N[C@H]3CC[C@H](N4CCOC(C(F)(F)F)C4)CC3)c2c1 (single isomer, unassigned)
0.131

Return reported IC50; argument: CC1OCCN([C@H]2CC[C@H](Nc3ncnc4ccc(C#N)cc34)CC2)C1C (stereo partly drawn)
0.096

A: CC1CN([C@H]2CC[C@H](Nc3ncnc4ccc(C#N)cc34)CC2)CC(C)O1 (single isomer, unassigned) [Example 3-14]
B: COc1cc2ncnc(N[C@H]3CC[C@H](N(C)C)CC3)c2cc1OC
Thinking about recorded IC50 values, which is higher, A or B ? Record your answer as the label of the chosen record.
B
(B: 7.42 µM, A: 0.033 µM)
